Assay system SGK1 (Homo sapiens, UniProt O00141); read-out recorded as IC50.
Numbers only, in nM.

INSERT INTO assay_data (given_smiles, experimental_target, observed_value) VALUES
  ('COCCn1nc(-c2cc(N3CCC[C@@H](NC(=O)c4sc(Cl)cc4O[C@@H]4C[C@H]5CCC[C@@H](C4)N5C)C3)c3c(N)ncnn23)ccc1=O', 'SGK1 (Homo sapiens, UniProt O00141)', 1),
  ('CC(C)N1CC2(CC(Oc3cc(Cl)sc3C(=O)N[C@@H]3CCCN(c4cc(-c5ccnc(C#N)c5)n5ncnc(N)c45)C3)C2)C1', 'SGK1 (Homo sapiens, UniProt O00141)', 1),
  ('CC(C)N1CC2(CN(c3cccc(C(=O)N[C@@H]4CCCN(c5cc(-c6ccc(-n7cnnn7)c(CO)c6)n6ncnc(N)c56)C4)n3)C2)C1', 'SGK1 (Homo sapiens, UniProt O00141)', 10),
  ('CN1[C@@H]2CC[C@H]1C[C@H](Oc1cc(Cl)sc1C(=O)N[C@@H]1CCCN(c3cc(-c4ccc5c(c4)COC5=O)n4ncnc(N)c34)C1)C2', 'SGK1 (Homo sapiens, UniProt O00141)', 0.9),
  ('CC(C)N1CC2(CN(c3cccc(C(=O)N[C@@H]4CCCN(c5cc(-c6ccc(C#N)nc6)n6ncnc(N)c56)C4)n3)C2)C1', 'SGK1 (Homo sapiens, UniProt O00141)', 14);

Query compound follows.
Reported IC50 for "Cc1cc(O[C@@H]2C[C@H]3CC[C@@H](C2)N3C)c(C(=O)N[C@@H]2CCCN(c3cc(-c4ccc(-n5cc(CCC#N)nn5)c(F)c4)n4ncnc(N)c34)C2)s1" was 0.8

====

Biological target: SGK1 (Homo sapiens, UniProt O00141)
Sequence (O00141 1-431): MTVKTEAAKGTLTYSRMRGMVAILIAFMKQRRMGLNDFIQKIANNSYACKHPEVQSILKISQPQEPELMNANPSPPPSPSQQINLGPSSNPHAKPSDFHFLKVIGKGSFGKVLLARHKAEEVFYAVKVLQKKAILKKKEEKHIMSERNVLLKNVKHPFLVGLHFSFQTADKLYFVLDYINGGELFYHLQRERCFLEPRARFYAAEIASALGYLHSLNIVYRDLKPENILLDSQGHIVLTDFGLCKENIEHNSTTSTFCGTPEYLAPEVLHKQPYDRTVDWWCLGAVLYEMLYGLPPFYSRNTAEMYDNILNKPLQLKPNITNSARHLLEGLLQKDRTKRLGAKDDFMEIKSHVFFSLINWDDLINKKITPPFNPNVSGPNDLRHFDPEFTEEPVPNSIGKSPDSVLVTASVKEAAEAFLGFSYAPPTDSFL
Counter-ions that a name gives are not always drawn.
Please respond with reported pIC50 for every item in the list.
Give bare numbers, as −log10 of the molar value.

Illustrative cases are given below, each with its answer.
INSERT INTO assay_data (compound, measurement_kind, observed_value) VALUES
  ('CC(=O)N1CC=C(c2cc(N3CCC[C@@H](NC(=O)c4sc(Cl)cc4OC4CC5CC(C4)N(C)C5)C3)c3c(N)ncnn23)C1 (single isomer, unassigned)', 'pIC50', 8.15),
  ('Cc1cc(O[C@@H]2C[C@H]3CC[C@@H](C2)N3C)c(C(=O)N[C@@H]2CCCN(c3cc(-c4ccc(-n5cnnn5)c(F)c4)n4ncnc(N)c34)C2)s1 [Example 847, TFA salt]', 'pIC50', 8.70),
  ('CC1=C(c2cc(N3CCCC(NC(=O)c4sc(C)nc4OC4CCC(N5CCC5)CC4)C3)c3c(N)ncnn23)COC1=O (stereo not drawn)', 'pIC50', 9.10),
  ('Cc1nc(OC2CCC(N3CCC3)CC2)c(C(=O)N[C@@H]2CCCN(c3cc(-c4csc(C(N)=O)n4)n4ncnc(N)c34)C2)s1 (stereo partly drawn)', 'pIC50', 9.22),
  ('CCN1CCC(Oc2nc(C)sc2C(=O)N[C@@H]2CCCN(c3cc(-c4ccc(C(N)=O)c(F)c4)n4ncnc(N)c34)C2)CC12CCC2 (stereo partly drawn)', 'pIC50', 8.22),
  ('CCN1CC[C@@H](Oc2cc(C(F)F)sc2C(=O)N[C@@H]2CCCN(c3cc(-c4ccc(C(N)=O)c(F)c4)n4ncnc(N)c34)C2)CC1(C)C', 'pIC50', 9.00),
  ('CC(C)N1CC2(CN(c3cccc(C(=O)N[C@@H]4CCCN(c5cc(-c6ccc7cnn(C)c7c6)n6ncnc(N)c56)C4)n3)C2)C1', 'pIC50', 7.16),
  ('COc1cc(-c2cc(N3CCC[C@@H](NC(=O)c4cccc(N5CC6(C5)CN(C(C)C)C6)n4)C3)c3c(N)ncnn23)ccc1-n1cnnn1', 'pIC50', 8.15);

Report pIC50 for each item below.
1. CC(C)N1CC2(CN(c3cccc(C(=O)N[C@@H]4CCCN(c5cc(-c6ccc(S(C)(=O)=O)cc6)n6ncnc(N)c56)C4)n3)C2)C1
2. COC(=O)N1CC=C(c2cc(N3CCC[C@@H](NC(=O)c4sc(C)nc4OC4CCN(C(C)C)CC4)C3)c3c(N)ncnn23)C1
3. CNC(=O)c1ccc(-c2cc(N3CCC[C@@H](NC(=O)c4cccc(N5CC6(C5)CN(C(C)C)C6)n4)C3)c3c(N)ncnn23)cn1
4. CC(=O)N1CC=C(c2cc(N3CCC[C@@H](NC(=O)c4nc(OC5CCNCC5)c(C)s4)C3)c3c(N)ncnn23)C1
5. CC(C)N1CC2(CN(c3cccc(C(=O)N[C@@H]4CCCN(c5cc(-c6cnc(-n7cnnn7)nc6)n6ncnc(N)c56)C4)n3)C2)C1
6. CC(C)N1CC2(CN(c3cccc(C(=O)N[C@@H]4CCCN(c5cc(-c6ccc(-n7cnnn7)c(F)c6F)n6ncnc(N)c56)C4)n3)C2)C1
7. CN1[C@@H]2CC[C@H]1C[C@H](Oc1cc(Cl)sc1C(=O)N[C@@H]1CCCN(c3cc(-c4cnc(-n5cnnn5)c(F)c4)n4ncnc(N)c34)C1)C2
8. CC(=O)c1ccc(-c2cc(N3CCC[C@@H](NC(=O)c4ccnc(N5CCN(C)CC5)n4)C3)c3c(N)ncnn23)cn1

Reply:
1. 7.92
2. 7.59
3. 7.68
4. 9.22
5. 7.60
6. 7.74
7. 8.70
8. 7.74
